- System: Human papillomavirus type 1a E7 protein (residues 1-88)
- test: HPV1a E7 small-molecule binders, primary screen, biochemical, small-molecule microarray, residues 1-88, 635 nm (AID 1129)
- condition_notes: small-molecule microarray binding, fluorescence 635 nm; higher = more signal
The entries below come with measured composite z-score values attached.
# respond with the number and nothing more

Previously resolved entries follow.
structure_as_smiles: CC(C)CON=C1C[C@@H](O)[C@@H](O)[C@@H]2[C@@H]3C(=O)N(Cc4ccc5c(c4)OCO5)C(=O)[C@@H]3CC[C@@H]12
composite z-score: 0.245
//
structure_as_smiles: CC(C)[C@@H](OCc1ccccc1)[C@H](C)C=NO[C@H](C)c1cn([C@@H]2COC[C@H]2O)nn1
composite z-score: 0.693

Consider now this further compound.
[ask] Fill in the blank: the reported composite z-score of `CON=C1c2cc(OC)ccc2O[C@H](c2cccc(OC)c2)[C@H]1O` is ____.
[reply] 0.416

----------
- Test system: XIP peptide (Xip251-270) binding
- test: small-molecule binders of XIP peptide, primary screen, biochemical, small-molecule microarray, fluorescence 635/667 nm, 0.1 µg/mL protein (AID 1182)
- condition_notes: fluorescent protein binding, 635 nm, higher = more signal, called active from +8 up or from −8 down
Entries get a class label from measured composite z-score. See ranges: label 0 (below -0.4), label 1 (-0.4 to below 0.6), label 2 (0.6 or more)

compound: COc1ccc2c(c1)O[C@@H](c1cccc(C(F)(F)F)c1)[C@H](O)C2=O
assigned_class: label 1

[ask] Exam item: assign `C[C@@H](c1ccccc1)N1C(=O)[C@H]2[C@H]3[C@H](O)[C@H](O)CC(=NOCc4ccccc4)[C@@H]3CC[C@H]2C1=O` to the correct category.
[reply] label 2

[ask] Follow-up item: `COc1ccc(COC(=O)NN=C2C[C@@H](O)[C@@H](O)[C@@H]3[C@@H]4C(=O)N(c5cccc(Oc6ccccc6)c5)C(=O)[C@@H]4CC[C@H]23)cc1`
[reply] label 0

----------
- test: mitochondrial membrane potential change in A549 cells, profiling panel, cell-based, JC-1 fluorescence, basal, 24 h, 100 nL (AID 1138);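 note: A549 lung adenocarcinoma cells under basal conditions with no added stimulus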
- condition_notes: higher = more signal
measurement_kind: z-score
# respond with the number and nothing more

Previously resolved entries follow.
compound: COc1ccc(O[C@H]2C=C[C@@H](C#Cc3ccccc3)O[C@@H]2CO)cc1
measurement_kind: z-score
reported_measurement: 0.511
--
compound: COC(=O)[C@H](C)NC(=O)CCC1CC(OC(=O)NCc2cccc3ccccc23)CC2(CCCC(COC(=O)NCCCN3CCCC3=O)O2)O1 (stereo not given in full)
measurement_kind: z-score
reported_measurement: -0.262
--
compound: COCCNC(=O)OCC1CCCC2(CC(OC(=O)NCc3cccc4ccccc34)CC(CCC(=O)N[C@@H](C)C(=O)OC)O2)O1 (stereo not given in full)
measurement_kind: z-score
reported_measurement: 0.609
--
compound: CCOC(=O)CCN1C(=O)[C@H]2[C@H]3[C@H](O)[C@H](O)CC(=NO[C@@H]4O[C@H](CO)[C@@H](O)[C@H](O)[C@H]4O)[C@H]3CC[C@H]2C1=O
measurement_kind: z-score
reported_measurement: -0.658

[ask] Fill in the blank: the reported z-score of `CCN1C(=O)[C@H]2[C@H]3[C@H](O)[C@H](O)CC(=NO[C@@H]4O[C@H](COC(C)=O)[C@@H](OC(C)=O)[C@H](OC(C)=O)[C@H]4OC(C)=O)[C@@H]3CC[C@H]2C1=O` is ____.
[reply] -0.282

[ask] Follow-up item: CCOC(=O)[C@H](Cc1ccccc1)NC(=O)CCC1CC(OC(=O)NCc2cccc3ccccc23)CC2(CCCC(COC(=O)NCCc3ccccc3OC)O2)O1 (stereo not given in full)
[reply] -0.538

[ask] Follow-up item: `C=C(C)C(=O)OC[C@H]1CN2[C@@H](CC[C@@H](C)[C@@H]2c2ccc(Br)cc2)C(=O)O1`
[reply] 0.47

[ask] Follow-up item: `COC(=O)[C@@H]1CC[C@H](C)[C@@H](c2ccc(Br)cc2)N1`
[reply] 0.0492

[ask] Follow-up item: `CC(C)=CCCC(C)=CCON=C1[C@H]2CCn3c(=O)n(-c4ccccc4)c(=O)n3[C@H]2[C@H](O)[C@@H]2O[C@H]12`
[reply] 0.334

Taken from PubChem BioAssay.
